B1: Azoarcus group I ribozyme (parent)
chain: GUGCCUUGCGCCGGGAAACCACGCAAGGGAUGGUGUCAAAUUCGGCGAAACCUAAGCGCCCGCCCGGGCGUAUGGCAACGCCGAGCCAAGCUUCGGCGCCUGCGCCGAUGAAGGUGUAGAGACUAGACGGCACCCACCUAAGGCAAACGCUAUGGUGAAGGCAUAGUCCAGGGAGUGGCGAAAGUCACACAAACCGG

variants of: B1; test: reverse-splicing fitness (ratio to wild type); higher = more active; in vitro selection; Mg2+ level not given
MEASURED METRIC: reverse-splicing fitness

# VARIANT ANNOTATION, MEASURED METRIC, REPORTED RESULT
rows = [
    ("C82A A111U A120C A145G C169A U176G", "reverse-splicing fitness", 0.00699),
    ("C82U A111U A120C U176G", "reverse-splicing fitness", 0.00482),
    ("A111U A145U C150U C169U U176G", "reverse-splicing fitness", 0.00684),
    ("C82G A111U A145U C150G C169U U176C", "reverse-splicing fitness", 0.0115),
    ("C82G A111U A120G C150G C169A U176C", "reverse-splicing fitness", 0.0111),
    ("C82G A111G A120U A145U C169G U176G", "reverse-splicing fitness", 0.00156),
    ("C82G A111U C150U C169U U176C", "reverse-splicing fitness", 0.013),
    ("C82G A111U A145U C150A C169U U176G", "reverse-splicing fitness", 0.00579),
    ("A120C A145C C150A C169A U176A", "reverse-splicing fitness", 0.00897),
    ("C82G A111U A120U A145U C169A U176A", "reverse-splicing fitness", 0.00292),
    ("C82G A120C C150U C169A", "reverse-splicing fitness", 0.0121),
]
